# target: Yeast α-glucosidase enzyme
# assay-method-text: α-Glucosidase inhibition assay (PNPG substrate)
# Type: biochemical
# measurement-conditions: NA = no inhibitory activity; acarbose positive control
Mark MET only for IC50 values smaller than 80 µM; exact matches and larger values are NOT MET.

Problem: Please indicate whether the reported IC50 of COc1cc2c(cc1O)CCc1cc(O)cc(OC)c1-2 is strictly below 80 µM.
Result: NOT MET

Problem: Please indicate whether the reported IC50 of COc1cc(O)cc2c1-c1cc(O)c(O)cc1CC2 is strictly below 80 µM.
Result: NOT MET

Problem: Please indicate whether the reported IC50 of COc1cc2c(ccc3c(-c4c(O)cc(OC)c5c4ccc4cc(O)c(OC)cc45)c(O)cc(OC)c32)cc1O is strictly below 80 µM.
Result: MET

Problem: Please indicate whether the reported IC50 of COc1cc(CCCOC(=O)CCc2ccc(O)cc2)ccc1O [Dihydroconiferyl dihydro-p-coumarate (9), dihydroconiferyl dihydro-p-coumarate] is strictly below 80 µM.
Result: NOT MET

Problem: Please indicate whether the reported IC50 of COc1cc(O)cc(CCc2ccc(O)c(OC)c2)c1 is strictly below 80 µM.
Result: NOT MET

Problem: Please indicate whether the reported IC50 of COc1cc2c(ccc3c(-c4c(O)cc5c6c4ccc4cc(O)c(OC)c(c46)CO5)c(O)cc(OC)c32)cc1O is strictly below 80 µM.
Result: MET

Problem: Please indicate whether the reported IC50 of COc1c(O)cc2c3c1COc1cc(O)cc(c1-3)CC2 is strictly below 80 µM.
Result: NOT MET

Problem: Please indicate whether the reported IC50 of COc1cc2c(cc1O)CCc1c(Oc3cc4c(cc3OC)-c3c(cc(O)cc3OC)CC4)c(O)cc(OC)c1-2 is strictly below 80 µM.
Result: MET

Problem: Please indicate whether the reported IC50 of COc1cc(O)c(-c2c(O)cc(OC)c3c2ccc2cc(O)c(O)cc23)c2ccc3cc(O)c(O)cc3c12 is strictly below 80 µM.
Result: MET
